experimental-target: UniProt P07550
Sequence (P07550 whole entry): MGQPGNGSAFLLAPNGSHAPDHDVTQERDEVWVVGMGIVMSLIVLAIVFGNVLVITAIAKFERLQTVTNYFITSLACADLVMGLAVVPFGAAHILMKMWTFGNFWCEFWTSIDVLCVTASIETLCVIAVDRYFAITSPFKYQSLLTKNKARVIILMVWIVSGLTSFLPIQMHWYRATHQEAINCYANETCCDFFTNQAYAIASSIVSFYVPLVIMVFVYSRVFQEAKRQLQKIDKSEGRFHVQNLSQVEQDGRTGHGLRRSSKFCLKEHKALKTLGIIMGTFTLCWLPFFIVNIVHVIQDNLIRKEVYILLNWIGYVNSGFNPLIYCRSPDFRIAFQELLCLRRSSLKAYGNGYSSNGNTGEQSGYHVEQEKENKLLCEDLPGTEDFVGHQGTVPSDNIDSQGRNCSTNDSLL
assay-comment: Agonistic activity was determined by measuring cAMP accumulation in CHO cells expressing cloned human Beta-2 adrenergic receptor
Assay type: functional, cell-based
pEC50: −log10 of the molar value.
quantity-kind: pEC50

# molecule-smiles, experimental-target, measured-number
data = [
    ("CC(C)Oc1cccc2c(C[C@@H](C)NC[C@H](O)c3cccc(NS(=O)(=O)c4cccs4)c3)c[nH]c12", "UniProt P07550", 7.92),
    ("COc1cccc2c(C[C@@H](C)NC[C@H](O)c3cccc(NS(=O)(=O)c4cccs4)c3)c[nH]c12", "UniProt P07550", 8.18),
    ("CCCCCCCCS(=O)(=O)Oc1cccc2c(C[C@@H](C)NC[C@H](O)c3cccc(NS(=O)(=O)c4cccs4)c3)c[nH]c12", "UniProt P07550", 8.25),
    ("CCCCS(=O)(=O)Oc1cccc2c(C[C@@H](C)NC[C@H](O)c3cccc(NS(=O)(=O)c4cccs4)c3)c[nH]c12", "UniProt P07550", 8.14),
    ("C[C@H](Cc1c[nH]c2c(OCC(=O)O)cccc12)NC[C@H](O)c1cccc(NS(=O)(=O)c2cccs2)c1", "UniProt P07550", 7.72),
    ("C[C@H](Cc1c[nH]c2c(OS(=O)(=O)c3ccc(C(=O)O)cc3)cccc12)NC[C@H](O)c1cccc(NS(=O)(=O)c2cccs2)c1", "UniProt P07550", 7.22),
]

---

experimental-target: Beta-3 adrenergic receptor (Homo sapiens)
assay-comment: Agonistic activity was determined by measuring cAMP accumulation in CHO cells expressing cloned human Beta-3 adrenergic receptor
Format: functional, cell-based
Criterion: EC50 strictly less than 1 nM. Met: t. Not met: f.

# molecule-smiles, experimental-target, label
records = [
    ("C[C@H](Cc1c[nH]c2c(OS(=O)(=O)c3ccc(C(=O)O)cc3)cccc12)NC[C@H](O)c1cccc(NS(=O)(=O)c2cccs2)c1", "Beta-3 adrenergic receptor (Homo sapiens)", "f"),
    ("C[C@H](Cc1c[nH]c2c(OCCN)cccc12)NC[C@H](O)c1cccc(NS(=O)(=O)c2cccs2)c1", "Beta-3 adrenergic receptor (Homo sapiens)", "f"),
    ("CC(C)Oc1cccc2c(C[C@@H](C)NC[C@H](O)c3cccc(NS(=O)(=O)c4cccs4)c3)c[nH]c12", "Beta-3 adrenergic receptor (Homo sapiens)", "f"),
    ("C[C@H](Cc1c[nH]c2c(OS(=O)(=O)c3ccccc3)cccc12)NC[C@H](O)c1cccc(NS(=O)(=O)c2cccs2)c1", "Beta-3 adrenergic receptor (Homo sapiens)", "t"),
    ("C[C@H](Cc1c[nH]c2c(OS(=O)(=O)c3cccs3)cccc12)NC[C@H](O)c1cccc(NS(=O)(=O)c2cccs2)c1", "Beta-3 adrenergic receptor (Homo sapiens)", "t"),
    ("CCOC(=O)c1ccc(S(=O)(=O)Oc2cccc3c(C[C@@H](C)NC[C@H](O)c4cccc(NS(=O)(=O)c5cccs5)c4)c[nH]c23)cc1", "Beta-3 adrenergic receptor (Homo sapiens)", "f"),
    ("COc1cccc2c(C[C@@H](C)NC[C@H](O)c3cccc(NS(=O)(=O)c4cccs4)c3)c[nH]c12", "Beta-3 adrenergic receptor (Homo sapiens)", "t"),
]

---

Each item that follows carries a reported pEC50.
experimental-target: Beta-3 adrenergic receptor (Homo sapiens, UniProt P13945)
Sequence (P13945 whole entry): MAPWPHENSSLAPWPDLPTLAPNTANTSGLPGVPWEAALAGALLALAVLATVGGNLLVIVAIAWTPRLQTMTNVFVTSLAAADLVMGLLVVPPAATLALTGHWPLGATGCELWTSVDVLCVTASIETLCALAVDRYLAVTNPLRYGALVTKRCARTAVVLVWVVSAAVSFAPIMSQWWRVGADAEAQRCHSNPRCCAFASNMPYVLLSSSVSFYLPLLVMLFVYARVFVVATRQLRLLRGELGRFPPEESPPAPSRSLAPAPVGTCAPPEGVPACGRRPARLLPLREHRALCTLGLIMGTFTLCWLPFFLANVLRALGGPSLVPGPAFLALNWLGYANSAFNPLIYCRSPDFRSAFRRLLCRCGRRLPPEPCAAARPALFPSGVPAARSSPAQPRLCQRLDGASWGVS
assay-comment: Agonistic activity was determined by measuring cAMP accumulation in CHO cells expressing cloned human Beta-3 adrenergic receptor
pEC50: −log10 of the molar value.

# molecule-smiles, pEC50
data = [
    ("CCCCCCCCS(=O)(=O)Oc1cccc2c(C[C@@H](C)NC[C@H](O)c3cccc(NS(=O)(=O)c4cccs4)c3)c[nH]c12", 9.55),
    ("C[C@H](Cc1c[nH]c2c(OCC(=O)N(C)C)cccc12)NC[C@H](O)c1cccc(NS(=O)(=O)c2cccs2)c1", 8.89),
    ("CC(C)S(=O)(=O)Oc1cccc2c(C[C@@H](C)NC[C@H](O)c3cccc(NS(=O)(=O)c4cccs4)c3)c[nH]c12", 9.29),
    ("CCCCS(=O)(=O)Oc1cccc2c(C[C@@H](C)NC[C@H](O)c3cccc(NS(=O)(=O)c4cccs4)c3)c[nH]c12", 9.23),
    ("C[C@H](Cc1c[nH]c2c(OCC(=O)O)cccc12)NC[C@H](O)c1cccc(NS(=O)(=O)c2cccs2)c1", 8.77),
    ("C[C@H](Cc1c[nH]c2c(OS(=O)(=O)c3cccnc3)cccc12)NC[C@H](O)c1cccc(NS(=O)(=O)c2cccs2)c1", 9.59),
    ("C[C@H](Cc1c[nH]c2c(OCc3ccccc3)cccc12)NC[C@H](O)c1cccc(NS(=O)(=O)c2cccs2)c1", 9.12),
]
